Values compiled from ChEMBL document CHEMBL1142401.

species on record: Rattus norvegicus; assay: Anticarcinogenic activity in rat assessed as induction of tumors per day; assay type: functional
Rule: fulfilled for pTD50 not less than 2, not fulfilled for anything less.

[
  {
    "sample_smiles": "CNc1ccc(N(CCO)CCO)cc1[N+](=O)[O-]",
    "classification": "fulfilled"
  }
]

IN: Has CC(C)[N+](=O)[O-] a recorded pTD50 greater than or equal to 2?
OUT: fulfilled

IN: Has Nc1nc(-c2ccc([N+](=O)[O-])o2)cs1 a recorded pTD50 greater than or equal to 2?
OUT: not fulfilled

IN: Has Nc1ccc([N+](=O)[O-])cc1 a recorded pTD50 greater than or equal to 2?
OUT: not fulfilled

IN: Has N/C(=N\O)c1ccc([N+](=O)[O-])o1 a recorded pTD50 greater than or equal to 2?
OUT: fulfilled
